Field: Neutralization IC50 (RSV subtype A). Provide a value for each of the binders that follow.
# test.system: RSV F on RSV-A2 virus (Respiratory Syncytial Virus (RSV-A2), UniProt P03420 26-574)
# method.description: cell-based or functional assay

binder	result
ADI-41551 (antibody, V domains shown, also called Ab 823; Antibody Number 823) VH: QVQLQESGGGVVQPGGSLRLSCAASGFTFSRHWMHWVRQVPGKGLVWVSRINSDESTIDYADSVKGRFTISRDNAKNTLYLQMNSLRAEDTAVYYCVRDMVAVPGTTGGDYWGQGTLVTVSS VL: SYELTQPPSVSVSPGQTADITCSGDKLGDKYACWYQQRAGQSPILVLYQDTRRPSGIPERFSGSNSGDTATLTISGTQAMDEADYYCQAWDSSTAWVFGGGTKLTVL	> 25 µg/mL
ADI-41547 (antibody, V domains shown, also called Ab 819; Antibody Number 819) VH: QVQLVQSGAEVKKPGSSVKVSCKASGGSFSSNTINWVRQAPGQGLEWMGGIIPVFETPNYAQKFQGRVSFTADESTRTAYMELSSLRSEDTAVYFCARQGMSYYDTNGNYYVGWFDTWGQGTLVTVSS VL: EIVLTQSPGTLSLSPGERATLSCRASQSLNNNYLAWYQRKPGQAPRLLIYGAGAFSRATGIPDRFSGSGSGTDFTLTISRLEPEDFALYYCQQYGSSPLTFGQGTRLEIK	0.05 µg/mL
ADI-41469 (antibody, V domains shown) VH: EVQLVESGGGVVQPGRSLRLSCAASGFTFSSYGMHWVRQAPGKGLEWVAVISYDGSFIKYADSMMGRFTISRDNSKNTLYLQMSSLRPEDTATYYCAKDALIPEYWGQGTLVTVSS VL: QPVLTQPASVSGSPGQSITISCTGTSSDVGGYNYVSWYQKHPDKAPRVIIYEVSNRPSGVSNRFSGSKSGNTASLTISGLQAEDEADYYCCSYTSTSGVVFGGGTKLTVL	0.35 µg/mL
ADI-41534 (antibody, V domains shown, also called Ab 806; Antibody Number 806) VH: QVQLVQSGGGVVQPGRSLRLSCAASGFTFSNYAMHWVRQAPGKGLEWVTLISYDGSAQDYADSVKGRITISRDNSKNTLYLQMSSLRPEDTAVYYCARYYCTNDVCSSSALDIWGQGTTVTVSS VL: SYELIQPPSVSVSPGQTASITCSGDKLGNKFTCWYQQKPGQSPVLVIYQDSKRPSGIPERFSGSNSGNTATLTISGTQAMDEADYYCQAWDSSTVVFGGRTKLTVL	> 25 µg/mL
ADI-41502 (antibody, V domains shown, also called Ab 781; Antibody Number 781) VH: QVQLVQSGAEVKKPGSSVKVSCKASGGPFSSDAMSWVRQAPGQGLEWMGGIIPILGSATYAQKFKGRVTIAADESTSTSYMELSGLKYEDTAVYYCARPFYDPLTGYFDTFNVWGQGTTVTVSS VL: QSVLTQPRSVPGSPGQSVTISCTGTSGDVGGYNYVSWYQQHPGKAPKLVIYDVTKRPSGVPDRFSGSKSGNRASLTISGLQAEDEADYYCCSYAGSQTGYVFGTGTKVTVL	> 25 µg/mL
ADI-41519 (antibody, V domains shown) VH: QVQLVESGPGLVKPSETLSLTCNVSGGSIITSGSYWGWIRQPPGKGLTWIGSISYSGTTYYNPSLRSRLTISLDTSRNHFSLQLTSVSAADTAVYYCARAFYEVWTGSEIPGDFDRWGQGTLVTVSS VL: EIVLTQSPGTLSLSPGERATLSCRASQSVSSSYLAWYQQKPGQAPRLLIYGASSRAIDIPDRFSGSGSGTDFTLTISRLEPEDFAVYYCQQFRRSPWTFGQGTKVDIK	> 25 µg/mL
ADI-41533 (antibody, V domains shown) VH: QVQLVESGGGVVQPGRSLRLSCAASGFTFSSYAMHWVRQAPGKGLEWLAVISFDGSSEFYGDSVRGRFTISRDNSKNTLYLRVNSLRAEDTALYYCARRSLKYSMYNNDAFDVWGQGTTVTVSS VL: QPVLTQPPSVSVSPGQTASITCSGDKLGNKFTFWYQQKSGQSPVLVIYQESQRPSGIPERFSGSNSGNTATLTIRGAQAMDEADYYCQAWDSSTAFFGGGTKLTVL	> 25 µg/mL
ADI-41536 (antibody, V domains shown, also called Ab 808; Antibody Number 808) VH: EVQLVESGAGLLKPSETLSLTCVVYGGSFSGYYWSWIRQPPGKGLEWVGDINHSTTTNYNPSLESRITISIDTSKNQFSLNLSSVTAADSAVYYCARGPKECTSSSCDRFGVDYFYYGMDVWGRGTTVTVSS VL: QSVLTQPPSVSGAPGQRVTISCTGSSANIGAGYDVHWYQQFPGTAPKLLIFGNSNRPSGVPDRFSGSKSGTSASLAITGLQAEDEADYYCQSYDGTLGGWVFGGGTQLTVL	> 25 µg/mL
ADI-41492 (antibody, V domains shown) VH: QVQLVQSGAEVRKPGSSVKVSCKASGGTFNSFVISWVRQAPGQGLEWMGRIIPILATVDYAQKFQGRVTITADKSTTTAYMELSGLTSEDTAVYYCARDPPRWDTTMADYYYQGMDVWGQGTTVTVSS VL: DIRVTQSPASLSAFVGDRVTISCRASQSIGSFLNWYQQKPGKAPKLLIYAASSLQSGVPSRFSGSGSGTDFTLAISSLQPEDFATYYCQQSYRSTPTFGGGTKVEIK	> 25 µg/mL

Now examine the next entry.
Request the reported Neutralization IC50 (RSV subtype A) associated with ADI-43646 (antibody, V domains shown) VH: EMQLMQSGGVVVQPGGSLRLSCAASGFTFDDYAMHWVRQAPGKGLEWVSLISWDGGSTYYADSVKGRFTISRDNSKNSLYLQMNSLRAEDTALYYCAKDFDPLVVPAAMCFDYWGQGTLVTVSS VL: QSVLIQPASVSGSPGQSITISCTGTSSDVGGYNYVSWYQQHPGKAPKLMIYDVSNRPSGVSNRFSGSKSGNTASLTISGLQAEDEADYYCSSYTSSSTLYVFGTGTKLTVL > 25 µg/mL

# credit: patent US20260258115A1
